# MEASURED_TARGET: HLA-A*0203 (human)
# MEASUREMENT_NOTES: inhibition of 125I probe peptide binding to purified HLA
# RUN_CONDITIONS: remark: other sources report otherwise
Provide the reported relative binding ratio of each item.
Numbers only.

As a guide, the following entries are already answered.
BINDER	relative binding ratio
CAGRWTGGKST [PSA position 194, 11 amino acids]	0.025
DLPTQEPALGT [PSA position 136, 11 amino acids]	0.01
CALPERPSLYT [PSA position 230, 11 amino acids]	0.0071

Attention now turns to another entry.
Q. Quick one: give measured relative binding ratio for CARAYSEKVT [Kallikrein position 184, 10 amino acids]
A. 0.02
